The entries below are paired with their reported human MASP2 IC50.
# target desc: recombinant human MASP2 active protease (amino acids 297-686, C-terminal His Tag) (human, UniProt O00187 297-686)
# Sequence (O00187 other isoform, or with tags, fused parts or gaps limits assumed): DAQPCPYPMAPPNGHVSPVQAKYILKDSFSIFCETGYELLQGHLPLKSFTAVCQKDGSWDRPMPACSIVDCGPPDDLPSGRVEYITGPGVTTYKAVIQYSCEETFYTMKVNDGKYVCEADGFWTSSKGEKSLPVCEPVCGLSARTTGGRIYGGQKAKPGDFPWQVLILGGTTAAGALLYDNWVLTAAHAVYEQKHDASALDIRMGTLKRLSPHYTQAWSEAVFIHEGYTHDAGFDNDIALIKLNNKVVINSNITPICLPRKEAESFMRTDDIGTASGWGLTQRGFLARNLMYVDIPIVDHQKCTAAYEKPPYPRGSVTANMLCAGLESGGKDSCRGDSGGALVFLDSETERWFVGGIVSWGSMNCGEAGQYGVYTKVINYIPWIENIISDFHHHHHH
# experiment: cell-based or functional assay
Bridge positions count the residues as written; N and C are the ends. Square brackets hold non-standard residues; d marks the D form. Ends that are not written are not given here. Oic = O=C(O)[C@@H]1C[C@@H]2CCCC[C@@H]2N1; tBuAla = CC(C)(C)C[C@H](N)C(=O)O; Aad = N[C@@H](CCCC(=O)O)C(=O)O; Pen = CC(C)(S)[C@H](N)C(=O)O; NMeC = CN[C@@H](CS)C(=O)O; Orn = NCCC[C@H](N)C(=O)O; Lac = C[C@H](O)C(=O)O; Sar = CNCC(=O)O
reported endpoint: human MASP2 IC50

binder="AICSRS[Aad]PPI[NMeC]IPD-NH2 (disulfide 3-11; N-terminus assumed; SMILES CC[C@H](C)[C@H](NC(=O)[C@H](C)N)C(=O)N[C@H]1CSSC[C@@H](C(=O)N[C@H](C(=O)N2CCC[C@H]2C(=O)N[C@@H](CC(=O)O)C(N)=O)[C@@H](C)CC)N(C)C(=O)[C@H]([C@@H](C)CC)NC(=O)[C@@H]2CCCN2C(=O)[C@@H]2CCCN2C(=O)[C@H](CCCC(=O)O)NC(=O)[C@H](CO)NC(=O)[C@H](CCCNC(=N)N)NC(=O)[C@H](CO)NC1=O) [Example 314: AIC+SRS-(AAD)-PP-I-((N-Me)C)+IPD-NH2]" value="260 nM"
binder="[Sar]I[Pen]SRS[tBuAla]PPICIP-NH2 (disulfide 3-11; N-terminus assumed; SMILES CC[C@H](C)[C@H](NC(=O)CNC)C(=O)N[C@@H]1C(=O)N[C@@H](CO)C(=O)N[C@@H](CCCNC(=N)N)C(=O)N[C@@H](CO)C(=O)N[C@@H](CC(C)(C)C)C(=O)N2CCC[C@H]2C(=O)N2CCC[C@H]2C(=O)N[C@@H]([C@@H](C)CC)C(=O)N[C@H](C(=O)N[C@H](C(=O)N2CCC[C@H]2C(N)=O)[C@@H](C)CC)CSSC1(C)C) [Example 310: ((N-Me)G)-I-(Pen)+SRS-((tBu)A)-PPI-C+IP-NH2]" value="3000 nM"
binder="[Sar]ICSRSLP[Oic]ICIPD-OH (disulfide 3-11; N-terminus assumed; SMILES CC[C@H](C)[C@H](NC(=O)CNC)C(=O)N[C@H]1CSSC[C@@H](C(=O)N[C@H](C(=O)N2CCC[C@H]2C(=O)N[C@@H](CC(=O)O)C(=O)O)[C@@H](C)CC)NC(=O)[C@H]([C@@H](C)CC)NC(=O)[C@@H]2C[C@@H]3CCCC[C@@H]3N2C(=O)[C@@H]2CCCN2C(=O)[C@H](CC(C)C)NC(=O)[C@H](CO)NC(=O)[C@H](CCCNC(=N)N)NC(=O)[C@H](CO)NC1=O) [Example 349: ((N-Me)G)-IC+SRSLP-(Oic)-IC+IPD-OH]" value="420 nM"
binder="[Lac]ICSRS[tBuAla]PPICIPD-NH2 (disulfide 3-11; N-terminus assumed; SMILES CC[C@H](C)[C@H](NC(=O)[C@H](C)O)C(=O)N[C@H]1CSSC[C@@H](C(=O)N[C@H](C(=O)N2CCC[C@H]2C(=O)N[C@@H](CC(=O)O)C(N)=O)[C@@H](C)CC)NC(=O)[C@H]([C@@H](C)CC)NC(=O)[C@@H]2CCCN2C(=O)[C@@H]2CCCN2C(=O)[C@H](CC(C)(C)C)NC(=O)[C@H](CO)NC(=O)[C@H](CCCNC(=N)N)NC(=O)[C@H](CO)NC1=O) [Example 387: (Lactic)-IC+SRS-((tBu)A)-PPIC+IPD-NH2]" value="2200 nM"
binder="ICSRSLP[Oic]I[Pen]I-OH (disulfide 2-10; N-terminus assumed; SMILES CC[C@H](C)[C@H](N)C(=O)N[C@H]1CSSC(C)(C)[C@@H](C(=O)N[C@H](C(=O)O)[C@@H](C)CC)NC(=O)[C@H]([C@@H](C)CC)NC(=O)[C@@H]2C[C@@H]3CCCC[C@@H]3N2C(=O)[C@@H]2CCCN2C(=O)[C@H](CC(C)C)NC(=O)[C@H](CO)NC(=O)[C@H](CCCNC(=N)N)NC(=O)[C@H](CO)NC1=O) [Example 368: IC+SRSLP-(Oic)-I-(Pen)+I-OH]" value="1200 nM"
binder="[Sar]ICSRS[tBuAla]PPI[Pen]IP[Orn][Orn][Orn]-NH2 (disulfide 3-11; N-terminus assumed; SMILES CC[C@H](C)[C@H](NC(=O)CNC)C(=O)N[C@H]1CSSC(C)(C)[C@@H](C(=O)N[C@H](C(=O)N2CCC[C@H]2C(=O)N[C@@H](CCCN)C(=O)N[C@@H](CCCN)C(=O)N[C@@H](CCCN)C(N)=O)[C@@H](C)CC)NC(=O)[C@H]([C@@H](C)CC)NC(=O)[C@@H]2CCCN2C(=O)[C@@H]2CCCN2C(=O)[C@H](CC(C)(C)C)NC(=O)[C@H](CO)NC(=O)[C@H](CCCNC(=N)N)NC(=O)[C@H](CO)NC1=O) [Example 430: ((N-Me)G)-IC+SRS-((tBu)A)-PPI-(Pen)+IP-(Orn)-(Orn)-(Orn)-NH2]" value="91 nM"
binder="XXAICSRS[tBuAla]PPI[Pen]IPD-OH (disulfide 5-13; not fully specified (N-terminus); printed as (D-(+)Biotin)-(Ahx)-AIC + SRS-((tBu)A)-PPI-(Pen) + IPD-OH) [Example 352: (D-(+)Biotin)-(Ahx)-AIC+SRS-((tBu)A)-PPI-(Pen)+IPD-OH]" value="71 nM"
binder="[Sar]ICSRSLP[Oic]I[Pen]IP[5‑Azaspiro(2.4)heptane‑1‑carboxylic acid]-OH (disulfide 3-11) [Example 438: ((N-Me)G)-IC+SRSLP-(Oic)-I-(Pen)+IP-((5-Azaspiro[2.4]heptane-1-carboxylic acid)-OH]" value="83 nM"
binder="PPICSRS[tBuAla]PPI[Pen]I-NH2 (disulfide 4-12; N-terminus assumed; SMILES CC[C@H](C)[C@H](NC(=O)[C@H]1NC(=O)[C@H]([C@@H](C)CC)NC(=O)[C@@H]2CCCN2C(=O)[C@@H]2CCCN2C(=O)[C@H](CC(C)(C)C)NC(=O)[C@H](CO)NC(=O)[C@H](CCCNC(=N)N)NC(=O)[C@H](CO)NC(=O)[C@@H](NC(=O)[C@@H](NC(=O)[C@@H]2CCCN2C(=O)[C@@H]2CCCN2)[C@@H](C)CC)CSSC1(C)C)C(N)=O) [Example 371: PPIC+SRS-((tBu)A)-PPI-(Pen)+I-NH2]" value="810 nM"
